Collected % of Wild-Type Signal values appear next to each entry.
molecular target: biotinylated Gβ1γ2 mutant Tyr59Ala (rat) (UniProt P54311); assay: phage ELISA, % of wild-type b-βγ
Sequence (P54311 whole entry Y59A, chain 1 of 2): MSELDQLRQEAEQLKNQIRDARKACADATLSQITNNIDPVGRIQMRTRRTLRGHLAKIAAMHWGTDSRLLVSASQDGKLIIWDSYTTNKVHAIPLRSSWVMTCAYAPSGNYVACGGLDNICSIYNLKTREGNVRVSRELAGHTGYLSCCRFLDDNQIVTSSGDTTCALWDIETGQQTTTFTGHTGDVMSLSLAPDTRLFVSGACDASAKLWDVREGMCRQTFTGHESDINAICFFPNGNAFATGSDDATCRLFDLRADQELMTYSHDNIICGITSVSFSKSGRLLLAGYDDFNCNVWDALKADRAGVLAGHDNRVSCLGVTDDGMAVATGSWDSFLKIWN
Sequence (P63212 2-68, chain 2 of 2, further chain): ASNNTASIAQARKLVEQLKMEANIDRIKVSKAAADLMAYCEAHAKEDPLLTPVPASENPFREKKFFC
Express your answer in %, writing the number without its unit.

Answered cases to consult:
WCPPKLEQWYDGCA (Group IV) [phage C2 (WCPPKLEQWYDGCA)]; -1.7
SCKRTKAQILLAPCT (Group I; also called Cl) [phage C1 (SCKRTKAQILLAPCT)]; 0.3
SCEKRYGIEFCT [phage C4 (…)]; 7.6

Query: Note down % of Wild-Type Signal recorded for SCGHGLKVQSTIGACA (Group II) [phage 3C (SCGHGLKVQSTIGACA)]
Result: 8.5

Query: Note down % of Wild-Type Signal recorded for SCEKRLGVRSCT (Group III) [phage C5 (SCEKRLGVRSCT)]
Result: 73.8

Query: Note down % of Wild-Type Signal recorded for WCPPKAMTQLGIKAC (Group II) [phage C14 (WCPPKAMTQLGIKAC)]
Result: 3.6

Query: Note down % of Wild-Type Signal recorded for LCSKAYLLLGQTC (Group I) [phage 2F (LCSKAYLLLGQTC)]
Result: -2

Query: Note down % of Wild-Type Signal recorded for SIGKALFILGYPDYD [phage 3.14 (SIGKALFILGYPDYD)]
Result: 24.7
